Values were extracted from paper PMC11062922.

System: DYRK1A
Parameters: species or system human, MV4-11 + K-562 + COLO205 + SK-N-BE2 + OVCAR-8
Conditions: read-out: apparent Kd; compound concentrations:100 nM and 1000 nM (sheet 'Samples'); n = 1

| compound | potency estimated from few doses / µM |
| --- | --- |
| Nc1nccc(-c2ccc3c(N)n[nH]c3c2)n1 [GSK1034945A] | 0.117 |
| CCS(=O)(=O)c1ccc(OC)c(Nc2ncc(-c3cccc(F)c3)o2)c1 | 1.66 |
| CCn1c(-c2nonc2N)nc2cncc(C(=O)N3CC[C@H](N)C3)c21.Cl | 1.52 |
| O=C(Nc1n[nH]c2cc(-c3ccsc3)ccc12)C1CC1 | 1.67 |
| O=c1[nH]cc(-c2ccc(O)cc2)c2sc(-c3ccncc3)cc12 [GSK1033723A] | 1.55 |
| CC(=O)c1c(-c2ccncc2)[nH]c(-c2ccncc2)c1C [GW493036X] | 0.0537 |
| O=c1[nH]cc(-c2ccc(N3CCOCC3)cc2)c2sc(-c3cn[nH]c3)cc12 [GSK2276055A] | 0.81 |
| COc1ccc(-c2oc3ncnc(N)c3c2-c2ccc(OC)cc2)cc1 | 1.95 |
| CCN1CCC(CC(=O)Nc2n[nH]c3nnc(-c4cccc(F)c4F)cc23)CC1.O=C(O)[C@H](O)[C@@H](O)C(=O)O | 1.52 |
